Item-by-item account of GI50
- Test system: SN12C
- protocol_details: NCI tumour cell line growth inhibition, 48 h
Calls of active or inactive are those of the source. Rule as the data show it: active = GI50 up to about 1.1 µM and inactive = higher.
measurement_kind: GI50

> print(dat)
                                   molecule  measurement.kind              reading
1   COc1ccc(-c2cc(-c3cc(C)ccc3O)nc(O)n2)cc1              GI50  > 100 µM (inactive)
2  CCCC1C[C@H]2CCCCN2[C@H]2CCCN12 (stereo partly specified)              GI50  > 100 µM (inactive)
3  O=[N+]([O-])c1ccc(C[P+]2(c3ccccc3)CCCCC2)cc1.[O-][Cl+3]([O-])([O-])[O-]              GI50  > 100 µM (inactive)
4  NC(=S)N/N=C1\C(=O)C=C(Nc2ccc(Cl)cc2Cl)c2ccccc21              GI50  > 100 µM (inactive)
5  CN1CCC(C(O)(c2ccccc2)c2ccc(Br)cc2)CC1 (stereo unspecified)              GI50   16.9 µM (inactive)
6  CCOC(=O)C1=CC(C)(C(=O)OCC)Nc2c(nc(SC)[nH]c2=O)N1 (stereo unspecified)              GI50   > 10 µM (inactive)
